- Method Notes: Tmax in Sprague-Dawley rat at 2 mg/kg, iv or 5 mg/kg, po
- Type: ADME, organism-based
- Condition Notes: in vivo
Measured Endpoint: Tmax

Q. What does the record list as Tmax for `CSc1ccc(CC(C)(C)NC[C@@H](O)CO[C@H](C)c2ccc(C)c3c2[C@@H]2[C@H](O3)[C@H]2C(=O)O)cc1F` ?
A. < 1 h

====

Please respond with reported pIC50 for every item in the list.
- Test System: Extracellular calcium-sensing receptor (Homo sapiens, UniProt P41180)
- Method Notes: Antagonist activity at calcium sensing receptor (unknown origin) by cell based FLIPR assay
Answers are plain numbers, as −log10 of the molar value.

Cc1ccc(C(C)OC[C@H](O)CNC(C)(C)Cc2ccc(Cl)c(F)c2)c2c1OC1C(C(=O)O)C21 (some centres undefined) : 6.69

Hi, could you look up pIC50 for each item in my list?
1. Cc1ccc([C@@H](C)OC[C@H](O)CNC(C)(C)CCSc2ccccc2)c2c1O[C@@H]1[C@@H](C(=O)O)[C@H]21
2. Cc1ccc(C(C)OC[C@H](O)CNC(C)(C)CC2Cc3ccccc3C2)c2c1OC1C(C(=O)O)C21 (some centres undefined)
3. CSc1ccc(CC(C)(C)NC[C@@H](O)CO[C@H](C)c2ccc(C)c3c2[C@@H]2[C@H](O3)[C@H]2C(=O)O)cc1F

A.
1. 7.29
2. 6.93
3. 7.56

====

- Method Notes: Oral bioavailability in Sprague-Dawley rat at 5 mg/kg
- Type: ADME, organism-based
- Condition Notes: in vivo
Exercise: for every item that follows, state its recorded bioavailability.
One number for each entry, in %.

CSc1ccc(CC(C)(C)NC[C@@H](O)CO[C@H](C)c2ccc(C)c3c2[C@@H]2[C@H](O3)[C@H]2C(=O)O)cc1F : 6.9

Consider the record given below.
Q. Would you mind telling me what bioavailability value was observed for `COc1ccc(CC(C)(C)NC[C@@H](O)CO[C@H](C)c2ccc(C)c3c2[C@@H]2[C@H](O3)[C@H]2C(=O)O)c(Cl)c1` ?
A. 16.5

====

I'd be grateful if you could share measured IC50 for these entries.
- Test System: Extracellular calcium-sensing receptor (Homo sapiens, UniProt P41180)
- Sequence (P41180 whole entry): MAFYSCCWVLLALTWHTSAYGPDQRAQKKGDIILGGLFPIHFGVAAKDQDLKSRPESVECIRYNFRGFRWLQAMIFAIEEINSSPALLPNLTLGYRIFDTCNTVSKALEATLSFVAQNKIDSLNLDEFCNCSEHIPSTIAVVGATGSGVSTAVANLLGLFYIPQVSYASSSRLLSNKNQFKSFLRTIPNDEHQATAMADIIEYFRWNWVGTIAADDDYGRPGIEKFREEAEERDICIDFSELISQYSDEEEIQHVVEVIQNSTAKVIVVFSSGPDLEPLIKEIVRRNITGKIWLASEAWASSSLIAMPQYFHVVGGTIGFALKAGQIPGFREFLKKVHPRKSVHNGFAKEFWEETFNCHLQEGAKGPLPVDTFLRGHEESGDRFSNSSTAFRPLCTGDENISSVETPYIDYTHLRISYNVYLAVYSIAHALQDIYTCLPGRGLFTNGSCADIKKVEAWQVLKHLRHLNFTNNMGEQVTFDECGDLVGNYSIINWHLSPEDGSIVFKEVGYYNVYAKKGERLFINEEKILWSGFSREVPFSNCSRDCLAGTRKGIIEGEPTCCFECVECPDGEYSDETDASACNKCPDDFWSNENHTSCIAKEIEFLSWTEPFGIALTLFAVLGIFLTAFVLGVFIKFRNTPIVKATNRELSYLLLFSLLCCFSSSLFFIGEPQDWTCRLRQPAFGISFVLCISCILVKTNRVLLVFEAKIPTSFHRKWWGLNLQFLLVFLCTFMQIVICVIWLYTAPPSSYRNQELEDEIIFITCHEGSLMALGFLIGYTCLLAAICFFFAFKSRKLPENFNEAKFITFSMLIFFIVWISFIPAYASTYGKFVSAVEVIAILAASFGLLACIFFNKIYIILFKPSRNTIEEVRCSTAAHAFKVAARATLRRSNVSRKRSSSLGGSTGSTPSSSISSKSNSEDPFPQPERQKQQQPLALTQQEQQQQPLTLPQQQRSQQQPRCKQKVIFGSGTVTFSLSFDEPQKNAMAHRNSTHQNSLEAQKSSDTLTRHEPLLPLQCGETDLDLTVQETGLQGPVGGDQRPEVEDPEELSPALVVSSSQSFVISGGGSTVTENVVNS
- Method Notes: Antagonist activity at calcium sensing receptor (unknown origin) by cell based FLIPR assay
Give bare numbers, in nM.

Observe how each entry below is paired with its result.
Cc1ccc(C(C)OC[C@H](O)CNC(C)(C)Cc2ccc3ccccc3c2)c2c1OC1C(C(=O)O)C21 (stereo not given in full) : 64.3
COc1ccc(CC(C)(C)NC[C@@H](O)CO[C@H](C)c2ccc(C)c3c2[C@@H]2[C@H](O3)[C@H]2C(=O)O)c(Cl)c1 : 19.6
Cc1ccc(CC(C)(C)NC[C@@H](O)CO[C@H](C)c2ccc(C)c3c2[C@@H]2[C@H](O3)[C@H]2C(=O)O)cc1C : 17.7
CSc1ccc(CC(C)(C)NC[C@@H](O)CO[C@H](C)c2ccc(C)c3c2[C@@H]2[C@H](O3)[C@H]2C(=O)O)cc1 : 39.3
Cc1ccc([C@@H](C)OC[C@H](O)CNC(C)(C)Cc2ccc3sccc3c2)c2c1O[C@@H]1[C@@H](C(=O)O)[C@H]21 : 9.62

Each compound below has a recorded value; state its IC50.
1. Cc1ccc([C@@H](C)OC[C@H](O)CNC(C)(C)Cc2ccc3ccccc3c2)c2c1O[C@H]1[C@H](C(=O)O)[C@@H]21
2. Cc1ccc([C@@H](C)OC[C@H](O)CNC(C)(C)CCCc2ccccc2)c2c1O[C@@H]1[C@@H](C(=O)O)[C@H]21

A.
1: 21.6; 2: 28.4

I would be grateful if you could provide IC50 for each of the following entries.
1. Cc1ccc([C@@H](C)OC[C@H](O)CNC(C)(C)Cc2ccc3ccccc3c2)c2c1O[C@@H]1[C@@H](C(=O)O)[C@H]21
2. Cc1ccc([C@@H](C)OC[C@H](O)CNC(C)(C)Cc2ccc3ncccc3c2)c2c1O[C@@H]1[C@@H](C(=O)O)[C@H]21

A.
1: 7.45; 2: 457
